# measurement notes: yeast display, Sf9 membrane polyspecificity reagent, FACS + sequencing; frameworks hold sequencing errors
endpoint label: polyreactivity (PSR sort gate)

| sequence content | recorded value |
| --- | --- |
| QVQLVESGGGLDQAGGSLRLSCAASGITLTANAMGWYRQSPGTERELVAAISRGGSTYYADSVKGRFTISRDNAKNTVYLQMNSVKPEDTQVFYCNKAGGYWYAKRDYDYWGQGTQVTVSS | high polyreactivity |
| QVQLVESGGGLVQAGGSLRLSCAASGSTLGRYAMGWYRQAPGKERELVAAISRGGGSTYYADSVKGRFTISRDNAKNTVYLQMNSLKPEYTAVYYCAVGIVHRDSRYYYWGQGTQVTVSS | high polyreactivity |
| QVQLVESGGGLVQAGGSLRLSCAASGRIFYYNAMGWYRPAPGKERELVATITGSGGSTYYADSVKGRFTISRDNAKNTVYLQMNSLKPEDTAVYYCNATRWYYDFYKLDYWGQGTKVTVSS | low polyreactivity |
| QVQLVESGGGLVQAGGSLRLSCAASGGTQVKYAMGWYRQAPGKERELVAAISRSTGNTYYADSVKGRFTISRDNAKNTVYLQMNSLKPEDTAVYYCAALKYTVGGKFGYWGQGTQVTVSS | high polyreactivity |

Next sequence, please.
Measured polyreactivity (PSR sort gate), QVQLVESGGGLVQAGGSLRLSCAASGRIFYINALGWYRQAPGKERELVASITGSGDSTYYADSVKGRFTISRDNAKNTVELQMNSLKPEDTAVYYCAARTYYYYGPRYYYWGQGTQVTVSS : low polyreactivity
